# System Tested: human GcgR (Homo sapiens, UniProt P47871)
# Sequence (P47871 26-477): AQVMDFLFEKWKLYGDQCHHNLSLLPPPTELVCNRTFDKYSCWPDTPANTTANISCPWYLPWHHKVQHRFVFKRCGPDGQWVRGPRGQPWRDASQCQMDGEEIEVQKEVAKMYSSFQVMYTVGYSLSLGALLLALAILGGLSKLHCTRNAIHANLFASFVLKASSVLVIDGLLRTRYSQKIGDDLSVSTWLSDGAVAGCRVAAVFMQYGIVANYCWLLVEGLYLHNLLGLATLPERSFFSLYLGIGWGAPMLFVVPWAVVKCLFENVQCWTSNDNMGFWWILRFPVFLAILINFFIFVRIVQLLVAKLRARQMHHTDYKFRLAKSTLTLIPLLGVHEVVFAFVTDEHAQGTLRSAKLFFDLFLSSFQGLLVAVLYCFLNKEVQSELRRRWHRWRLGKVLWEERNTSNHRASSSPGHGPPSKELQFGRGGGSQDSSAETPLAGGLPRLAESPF
# Assay Notes: Functional cAMP activity in the presence of 1% HSA
# Type: cell-based
# Condition Description: read-out: cAMP Rel EC50, hGcgR
Starred links: 1 amine or outer side, 2 acyl side, 3 side chain; linkers in the order of their positions; H or OH if unused. Non-standard residues stand in square brackets, D forms with d. Groups on a side chain read outwards from the residue. No end group written: not given here. *: point of attachment. C20 diacid = O=C(O)CCCCCCCCCCCCCCCCCCC(=O)*; C18 diacid = O=C(O)CCCCCCCCCCCCCCCCC(=O)*; αMePhe(2-F) = C[C@](N)(Cc1ccccc1F)C(=O)O; γGlu = O=C(O)[C@H](CCC(=O)[*:2])N[*:1]; αMe4Pal = C[C@](N)(Cc1ccncc1)C(=O)O; αMeY = C[C@](N)(Cc1ccc(O)cc1)C(=O)O; 4Pal = N[C@@H](Cc1ccncc1)C(=O)O; αMeL = CC(C)C[C@](C)(N)C(=O)O; αMeS = C[C@](N)(CO)C(=O)O; Orn = NCCC[C@H](N)C(=O)O; AEEA = NCCOCCOCC(=O)O; Aib = CC(C)(N)C(=O)O
Observed Property: pEC50
Numbers only, as −log10 of the molar value.

Example cases with answers are listed next.
- Substance: "H-Y[Aib]QGTFTSDFS[Orn][αMeL]LDKK([AEEA-γGlu-C18 diacid])AQ[Aib]AFIE[4Pal]LLEGGPSSGAPPPGGS-NH2 [Example 496]"
  System Tested: "human GcgR (Homo sapiens, UniProt P47871)"
  pEC50: 5.82
- Substance: "H-Y[Aib]QGTFTSD[4Pal]S[Orn][αMeL]LDKK([γGlu-γGlu-C18 diacid])AQ[Aib]AFIE[αMeY]LIEGGPSSGAPPPSGS-NH2 [Example 941]"
  System Tested: "human GcgR (Homo sapiens, UniProt P47871)"
  pEC50: 5.84
- Substance: "H-Y[Aib]Q[dA]T[αMePhe(2-F)]TSD[4Pal][αMeS]I[αMeL]LD[Orn]K([AEEA-γGlu-C18 diacid])AQ[Aib]EFI[dE][αMeY]LIEGGPSSGAPPPSGGGE-NH2 [Example 1223]"
  System Tested: "human GcgR (Homo sapiens, UniProt P47871)"
  pEC50: 6.33
- Substance: "H-Y[Aib]QGTFTSDFSK[αMeL]LDKK([AEEA-γGlu-C20 diacid])AQ[Aib]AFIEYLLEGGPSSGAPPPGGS-NH2 [Example 18]"
  System Tested: "human GcgR (Homo sapiens, UniProt P47871)"
  pEC50: 5.92
- Substance: "H-Y[Aib]QGTFTSDFSK[αMeL]LDKK([AEEA-AEEA-γGlu-C18 diacid])AQ[Aib]AFIEYLLEGGPSSGAPPPSGS-NH2 [Example 142]"
  System Tested: "human GcgR (Homo sapiens, UniProt P47871)"
  pEC50: 5.91
- Substance: "H-Y[Aib]QGTFTSD[4Pal]SR[αMeL]LDKK([AEEA-γGlu-C18 diacid])AQ[Aib]AFIEYLIE[Aib]GESSGAPPPSGS-NH2 [Example 187]"
  System Tested: "human GcgR (Homo sapiens, UniProt P47871)"
  pEC50: 5.53

Would you mind listing pEC50 for each of the following substances?
1. H-Y[Aib]QGT[αMePhe(2-F)]TSD[4Pal]SILLDKK([γGlu-γGlu-C18 diacid])AQ[Aib]AFIE[αMe4Pal]LEEGGPSSGAPPPSGTE-NH2 [Example 552]
2. Y[Aib]QGTFTSDFS[Orn][αMeL]LDKK([AEEA-γGlu-C18 diacid])AQ[Aib]AFIEYLLAGGPSSGEPPPEGE-NH2 [Example 98]

stdout:
1: 6.54; 2: 6.06
